Target: T1, CD123 (Homo sapiens (Human), UniProt P26951 19-305, limits assumed)
T1 construct: also called CD123-Signal
T1 sequence: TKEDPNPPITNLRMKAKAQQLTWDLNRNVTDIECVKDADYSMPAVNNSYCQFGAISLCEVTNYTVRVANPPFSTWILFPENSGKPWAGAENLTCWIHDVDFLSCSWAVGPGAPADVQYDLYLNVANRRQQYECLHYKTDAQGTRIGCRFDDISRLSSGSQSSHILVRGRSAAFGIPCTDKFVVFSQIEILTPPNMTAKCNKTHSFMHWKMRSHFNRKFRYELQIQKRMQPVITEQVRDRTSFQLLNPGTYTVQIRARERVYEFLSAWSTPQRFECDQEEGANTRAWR
Assay: ELISA, format not described
Parameters: unit not given here
The entries below come with measured ELISA_avg values attached.
EXPERIMENTAL_READOUT: ELISA_avg

BINDER: D domain SEQ ID NO: 738 (designed binder) MGSWVEFWDRLWAIEDRLWALGGSEAELAAFEKEIAAFESELQAYKGKGNPEVEHLRHYAADIRVWLQAYRHN
EXPERIMENTAL_READOUT: ELISA_avg
OBSERVED_RESULT: 4.5
--
BINDER: D domain SEQ ID NO: 715 (designed binder) MGSWVEFRDRLDAIETRLWALGGSEAELAAFEKEIAAFESELQAYKGKGNPEVEWLRYEAAEIRMVLQAYRHN
EXPERIMENTAL_READOUT: ELISA_avg
OBSERVED_RESULT: 4.2
--
BINDER: D domain SEQ ID NO: 768 (designed binder) MGSWVEFVDRLEAIEDRLFALGGSEAELAAFEKEIAAFESELQAYKGKGNPEVEFLRDQAAYIRFMLQAYRHN
EXPERIMENTAL_READOUT: ELISA_avg
OBSERVED_RESULT: 4.9
--
BINDER: D domain SEQ ID NO: 675 (designed binder) MGSWYEFEDRLAAIEARLWALGGSEAELADFEEEIAYFEHGLQWYKGKGNPEVEALESEAMAIIDELHAYRHN
EXPERIMENTAL_READOUT: ELISA_avg
OBSERVED_RESULT: 3.8
--
BINDER: D domain SEQ ID NO: 681 (designed binder) MGSWDEFEERLQAIEYRLWALGGSEAELAWFEEVIAQFEYDLQKYKGKGNPEVEALSTEAQAIQDELWAYRHN
EXPERIMENTAL_READOUT: ELISA_avg
OBSERVED_RESULT: 3.8
